experiment: amyloid nucleation score (Sup35N fusion, yeast selection) (log enrichment); library NNK1; higher = more nucleation; inactive = no reads after selection;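 also: zero at mode of non-aggregating sequences after 7 days selection at 30°C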
Give 1.0 when the value for amyloid nucleation score is at least -0.2. Give 0.0 when it is less.

q: Evaluate EMYKTRAFLSRKYMRHLLFN : amyloid nucleation score at minimum -0.2?
a: 0.0

q: Evaluate FLMWMWLVSNRKHWLFTDKV : amyloid nucleation score at minimum -0.2?
a: 0.0

q: Evaluate NLINVFTLKWFDITL : amyloid nucleation score at minimum -0.2?
a: 1.0

q: Evaluate EVCWNSCMVADSVSVISNPA : amyloid nucleation score at minimum -0.2?
a: 0.0

q: Evaluate RCCSFRLYLFTEG : amyloid nucleation score at minimum -0.2?
a: 1.0

q: Evaluate IWMTGVLLNP : amyloid nucleation score at minimum -0.2?
a: 0.0

q: Evaluate SNWTPCQSESP : amyloid nucleation score at minimum -0.2?
a: 0.0

----------
assay: amyloid nucleation score (Sup35N fusion, yeast selection) (log enrichment); library NNK1; higher = more nucleation; inactive = no reads after selection
Give y when the value for amyloid nucleation score is at least 0.7. Give n when it is less.

q: Evaluate IYDIEEDLCSVSVSGKESWV : amyloid nucleation score at minimum 0.7?
a: n

q: Evaluate FKYTHIETVIQVLYFRTWSY : amyloid nucleation score at minimum 0.7?
a: n

q: Evaluate NPSNKCLSEPWQDHLLGAWR : amyloid nucleation score at minimum 0.7?
a: y

q: Evaluate ISVVLWYDRALARCPSPDAP : amyloid nucleation score at minimum 0.7?
a: y

q: Evaluate ESARCVRVTALSLWHRDQRS : amyloid nucleation score at minimum 0.7?
a: y

q: Evaluate LNISMFHSNSSHTTEEVTHH : amyloid nucleation score at minimum 0.7?
a: y

q: Evaluate YKIGLT : amyloid nucleation score at minimum 0.7?
a: n

q: Evaluate SPVESQNSNNRLTIMDLIMR : amyloid nucleation score at minimum 0.7?
a: n

----------
experiment: amyloid nucleation score (Sup35N fusion, yeast selection) (log enrichment); library NNK3; higher = more nucleation; inactive = no reads after selection
attribute.measured: amyloid nucleation score

# example entries with known answers
1) KGLASSYRTTYAVDL :: inactive
2) MWSIVSGDKVGSSPVLGGCV :: inactive
3) LRRQSVMWDKSYAGTWILES :: inactive
4) MLFYCN :: inactive
5) KLVVNSKPYMNYVSVDEIIM :: inactive

q: Find the recorded amyloid nucleation score belonging to VMAYRHAGRRFSDPKSIKIS and report it.
a: inactive

q: Find the recorded amyloid nucleation score belonging to GRARMFGLGRVFKVCMKLRA and report it.
a: -0.543

----------
assay: amyloid nucleation score (Sup35N fusion, yeast selection) (log enrichment); library NNK3; higher = more nucleation; inactive = no reads after selection
Give label 1 when the value for amyloid nucleation score is at least 1. Give label 0 when it is less.

q: Evaluate ITCGIKIFF : amyloid nucleation score at minimum 1?
a: label 1

q: Evaluate ISVGVLSVCCGIC : amyloid nucleation score at minimum 1?
a: label 1

q: Evaluate NMCDNMQQIMVSGYVVVWVY : amyloid nucleation score at minimum 1?
a: label 1

q: Evaluate LSKLPTKMACPLMVRS : amyloid nucleation score at minimum 1?
a: label 0

q: Evaluate STSYGLRIVSKNDDYLRTAR : amyloid nucleation score at minimum 1?
a: label 0
